biological target: human complement protein C3 (human, UniProt P01024 23-1663); experiment: cell-based or functional assay
Sequence (P01024 23-1663 limits assumed): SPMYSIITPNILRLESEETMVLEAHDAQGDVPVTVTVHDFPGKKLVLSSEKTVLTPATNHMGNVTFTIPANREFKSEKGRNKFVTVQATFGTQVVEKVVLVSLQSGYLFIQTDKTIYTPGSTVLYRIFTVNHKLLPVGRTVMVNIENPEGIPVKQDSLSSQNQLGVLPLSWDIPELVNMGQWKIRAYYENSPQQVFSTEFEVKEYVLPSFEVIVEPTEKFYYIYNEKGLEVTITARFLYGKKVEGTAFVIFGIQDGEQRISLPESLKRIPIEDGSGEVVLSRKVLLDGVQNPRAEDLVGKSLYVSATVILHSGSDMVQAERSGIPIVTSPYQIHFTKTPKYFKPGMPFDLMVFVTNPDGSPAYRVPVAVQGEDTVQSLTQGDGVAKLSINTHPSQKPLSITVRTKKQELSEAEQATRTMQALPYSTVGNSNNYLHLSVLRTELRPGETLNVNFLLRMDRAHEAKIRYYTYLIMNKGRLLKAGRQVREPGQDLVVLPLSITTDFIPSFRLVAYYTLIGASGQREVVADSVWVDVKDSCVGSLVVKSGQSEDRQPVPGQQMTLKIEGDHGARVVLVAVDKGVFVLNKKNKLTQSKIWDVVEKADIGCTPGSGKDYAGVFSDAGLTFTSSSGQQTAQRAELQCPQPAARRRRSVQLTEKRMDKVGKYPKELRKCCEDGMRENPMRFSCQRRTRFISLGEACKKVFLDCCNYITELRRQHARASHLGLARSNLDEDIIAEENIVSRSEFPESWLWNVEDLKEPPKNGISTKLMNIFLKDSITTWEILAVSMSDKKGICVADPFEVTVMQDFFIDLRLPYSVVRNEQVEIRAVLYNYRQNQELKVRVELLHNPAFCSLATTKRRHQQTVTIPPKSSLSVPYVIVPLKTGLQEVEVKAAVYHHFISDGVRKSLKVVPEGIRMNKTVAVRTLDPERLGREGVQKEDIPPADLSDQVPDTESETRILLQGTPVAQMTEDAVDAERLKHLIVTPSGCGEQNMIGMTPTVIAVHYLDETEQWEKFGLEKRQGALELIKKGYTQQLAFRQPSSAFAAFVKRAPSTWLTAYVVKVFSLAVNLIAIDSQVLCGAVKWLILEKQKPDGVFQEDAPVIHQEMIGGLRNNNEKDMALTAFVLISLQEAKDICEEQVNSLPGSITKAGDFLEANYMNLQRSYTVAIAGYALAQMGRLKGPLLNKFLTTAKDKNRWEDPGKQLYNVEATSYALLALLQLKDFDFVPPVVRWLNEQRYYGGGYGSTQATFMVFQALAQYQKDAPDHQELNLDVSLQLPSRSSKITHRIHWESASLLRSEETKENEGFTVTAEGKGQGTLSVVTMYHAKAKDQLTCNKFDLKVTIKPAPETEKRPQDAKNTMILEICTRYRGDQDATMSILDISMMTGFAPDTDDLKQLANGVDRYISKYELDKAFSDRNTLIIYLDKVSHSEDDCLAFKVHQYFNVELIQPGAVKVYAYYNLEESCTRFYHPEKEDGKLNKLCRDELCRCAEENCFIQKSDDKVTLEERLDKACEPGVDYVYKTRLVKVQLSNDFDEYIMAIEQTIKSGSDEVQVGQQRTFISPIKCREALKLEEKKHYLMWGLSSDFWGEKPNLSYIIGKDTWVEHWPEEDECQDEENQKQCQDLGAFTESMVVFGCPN
Bridge positions count the residues as written; N and C are the ends. Square brackets hold non-standard residues; d marks the D form. Nal = 1-naphthylalanine or 2-naphthylalanine; Sea = not defined here
Reported C3b ELISA IC50 values for a set of binders

As a guide, the following entries are already answered.
>  <Binder>
Ac-NRLCV[Nal]QDWG[Nal]HRCT-NH2 (disulfide 4-14; not fully specified; printed as Ac-NRLCV{Nal}QDWG{Nal}HRCT-NH2) [Peptide 4.7, Ac-NR-LCV{Nal}QDWG{Nal}HRCT-NH2]

>  <C3b ELISA IC50>
2300 nM

$$$$
>  <Binder>
Ac-ICVWQDWG[Nal]HRCT-NH2 (disulfide 2-12; not fully specified; printed as Ac-ICVWQDWG{Nal}HRCT-NH2) [Peptide 2.2, Ac-ICVWQDWG{Nal}HRCT-NH2]

>  <C3b ELISA IC50>
2400 nM

$$$$
>  <Binder>
Ac-NNLCV[Nal]QDWG[Nal]HRCT-NH2 (disulfide 4-14; not fully specified; printed as Ac-NNLCV{Nal}QDWG{Nal}HRCT-NH2) [Peptide 4.6, Ac-NN-LCV{Nal}QDWG{Nal}HRCT-NH2]

>  <C3b ELISA IC50>
3900 nM

$$$$
>  <Binder>
Ac-NRLCVWQDWG[Nal]HRCT-NH2 (disulfide 4-14; not fully specified; printed as Ac-NR-LCVWQDWG{Nal}HRCT-NH2) [Peptide 4.3, Ac-NR-LCVWQDWG{Nal}HRCT-NH2]

>  <C3b ELISA IC50>
2000 nM

$$$$
>  <Binder>
Ac-ICVWQDWG[Sea]HRCT-NH2 (disulfide 2-12; reading uncertain; also: printed as Ac-ICVWQDWG{Sea}HRCT-NH2) [Peptide 2.5, Ac-ICVWQDWG{Sea}HRCT-NH2]

>  <C3b ELISA IC50>
600 nM

$$$$

The value of C3b ELISA IC50 measured for the binder Ac-RSICVWQDWG[Nal]HRCT-NH2 (disulfide 4-14; not fully specified; printed as Ac-RS-ICVWQDWG{Nal}HRCT-NH2) [Peptide 4.4, Ac-RS-ICVWQDWG{Nal}HRCT-NH2] turned out to be 3100 nM

The value of C3b ELISA IC50 measured for the binder Ac-NNLCVWQDWG[Nal]HRCT-NH2 (disulfide 4-14; not fully specified; printed as Ac-NN-LCVWQDWG{Nal}HRCT-NH2) [Peptide 4.2, Ac-NN-LCVWQDWG{Nal}HRCT-NH2] turned out to be 2900 nM
